molecular target: Protein Mdm4 (Homo sapiens) + E3 ubiquitin-protein ligase Mdm2 (Homo sapiens) (UniProt O15151+Q00987); assay: inhibitors of human Mdm2-MdmX association, primary screen, cell-based, luminescence, split luciferase, SaOS-2, uHTS (AID 485346); settings: SaOS-2 split-luciferase Mdm2/MdmX complementation, at 8 µM
Sequence (O15151 whole entry, looked up): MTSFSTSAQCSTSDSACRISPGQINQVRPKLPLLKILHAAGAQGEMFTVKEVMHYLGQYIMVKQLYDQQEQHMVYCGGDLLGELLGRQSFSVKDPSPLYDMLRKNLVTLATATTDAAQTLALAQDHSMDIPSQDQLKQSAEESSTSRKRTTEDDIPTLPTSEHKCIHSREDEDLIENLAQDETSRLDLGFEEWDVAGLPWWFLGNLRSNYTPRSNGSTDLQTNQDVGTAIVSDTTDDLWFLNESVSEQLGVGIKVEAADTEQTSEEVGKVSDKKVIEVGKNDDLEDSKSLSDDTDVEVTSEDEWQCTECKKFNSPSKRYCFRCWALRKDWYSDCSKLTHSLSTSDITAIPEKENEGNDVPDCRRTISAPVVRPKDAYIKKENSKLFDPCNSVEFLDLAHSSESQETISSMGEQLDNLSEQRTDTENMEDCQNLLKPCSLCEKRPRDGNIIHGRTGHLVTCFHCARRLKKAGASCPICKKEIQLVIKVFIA
Sequence (Q00987 whole entry, looked up): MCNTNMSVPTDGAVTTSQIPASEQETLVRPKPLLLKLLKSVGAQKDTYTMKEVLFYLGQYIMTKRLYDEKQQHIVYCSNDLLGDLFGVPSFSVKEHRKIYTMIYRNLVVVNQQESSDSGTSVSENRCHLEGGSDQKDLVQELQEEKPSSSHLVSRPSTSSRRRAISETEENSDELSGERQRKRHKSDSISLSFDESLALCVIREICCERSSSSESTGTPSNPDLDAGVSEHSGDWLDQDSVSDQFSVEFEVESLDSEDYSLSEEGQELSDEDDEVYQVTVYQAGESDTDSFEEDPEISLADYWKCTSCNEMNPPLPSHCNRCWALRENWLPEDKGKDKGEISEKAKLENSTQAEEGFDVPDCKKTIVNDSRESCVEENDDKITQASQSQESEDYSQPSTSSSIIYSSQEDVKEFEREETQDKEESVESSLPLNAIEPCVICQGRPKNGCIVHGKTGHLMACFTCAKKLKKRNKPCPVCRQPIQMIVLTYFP
Among all 330,000 compounds or so, about 10,000 (3%) were called active.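 How the source made its calls: active means inhibition of at least 50% at 8 µM in the primary screen; inactive means the rest.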 The sample as a whole holds a higher share of actives than the screen did.
Possible outcomes: active, inactive

{"Molecule": "O=C(Nc1ccc2c(c1)nc1n2CCCCC1)c1cc(S(=O)(=O)N2CCOCC2)ccc1Cl", "Group": "inactive"}
{"Molecule": "O=C(Nc1ccncc1)c1c(F)cccc1F", "Group": "active"}
{"Molecule": "Cc1cc2oc3ccc(NCCC4CCCN4C)cc3c(=O)c2cc1C (configuration not stated)", "Group": "active"}
{"Molecule": "COc1ccc(C2CC(=O)Nc3sc(=N)c4c(N)c(C#N)c(N)nc4c32)cc1OC (configuration not stated)", "Group": "inactive"}
{"Molecule": "CSc1nc2ccc(NC(=O)c3c(F)cccc3F)cc2s1", "Group": "inactive"}
{"Molecule": "Cc1cccc([C@@H]2[C@@H]3C(=O)N(Cc4ccccc4)C(=O)[C@@H]3[C@]3(C)C(=O)N(c4ccc(Br)cc4)C(=O)N23)c1", "Group": "active"}
{"Molecule": "COc1cccc2sc3cc(NCC[C@@H]4CCCN4C)ccc3c(=O)c12", "Group": "inactive"}
{"Molecule": "CCCc1nc2oc3c(OCC)ncnc3c2c2c1COC(C)(C)C2", "Group": "inactive"}
{"Molecule": "Brc1cc(Br)c(Oc2cc(Br)c(Br)cc2Br)cc1Br", "Group": "inactive"}
{"Molecule": "CCC(c1nnnn1Cc1ccco1)N(CCc1ccccc1)Cc1cc2cccc(C)c2[nH]c1=O (configuration not stated)", "Group": "inactive"}
{"Molecule": "N#Cc1cccc(CSc2nnc(CCCO)n2-c2ccccc2)c1", "Group": "inactive"}
{"Molecule": "CCOc1ccc(CN2CCC(n3nccc3NC(=O)C3CC3)CC2)cc1CO", "Group": "inactive"}
{"Molecule": "CCOC(=O)C1CSC(CC(=O)Nc2ccc(OCC)cc2)C(=O)N1 (configuration not stated)", "Group": "inactive"}
{"Molecule": "O=C(COC(=O)C1CC2C=CC1C2)Nc1ccccc1 (configuration not stated)", "Group": "inactive"}
{"Molecule": "NS(=O)(=O)c1cccc(NC(=O)COC(=O)c2cc([N+](=O)[O-])ccc2N2CCCC2)c1", "Group": "inactive"}
{"Molecule": "O=S(=O)(Nc1cccc(Oc2ccc(Cl)cc2)n1)c1ccc(F)cc1", "Group": "inactive"}
{"Molecule": "Cc1cc(C)c2nc(N3CCC(C(=O)NCCN4CCOCC4)CC3)sc2c1", "Group": "inactive"}
{"Molecule": "COCc1cc(C)n(CC(=O)NCC2CCCO2)c(=O)c1C#N (configuration not stated)", "Group": "inactive"}
{"Molecule": "O=C(/C=C/c1cccc([N+](=O)[O-])c1)OCC(=O)N1CCOCC1", "Group": "inactive"}
{"Molecule": "Cc1cc2oc(=O)cc(CN3CCN(Cc4ccccc4)CC3)c2cc1C", "Group": "inactive"}
{"Molecule": "CC(C)(C)OC(=O)Nc1ccc([C@@H](NC(=O)OC(C)(C)C)C(=O)OC(C)(C)C)cc1", "Group": "inactive"}
{"Molecule": "O=C(Nc1ccncc1)Nc1ccc(F)cc1", "Group": "inactive"}

All figures here come from PubChem BioAssay AID485346.
